These measurements were taken from patent US20220125051A1.

test system: Eleusine indica (ELEIN); assay: Post-emergence efficacy, Method A; format: in vivo; conditions: Eleusine indica, post-emergence, 312 h; Application Rate 500 g/Ha; evaluated after 13 days; Method A; read-out: Control of weed species after post-emergence application, ELEIN (100=total damage to plant; 0=no damage to plant)
Define the label as Y when pest or weed control at 500 g/ha is strictly less than 30% and as N in all remaining cases.

Use these answered entries as a reference point.
CCOP(=O)(O)CCC[n+]1ccc(-c2ncccn2)cn1 : N
NC(=O)c1ccc(-c2cc[n+](CCCS(=O)(=O)[O-])nc2)nc1 : Y
OCC[n+]1ccc(-c2ncccn2)cn1 [Compound A195, 2,2,2-trifluoroacetate] : Y

Q. In the record for CC(C[n+]1ccc(-c2ccncn2)cn1)C(=O)O (stereo not drawn) , is pest or weed control at 500 g/ha less than 30%?
A. N

Q. Same question, O=S(=O)([N-]CC[n+]1ccc(-c2ncccn2)cn1)C(F)(F)F this time
A. N

Q. Same question, CC(CC(=O)O)[n+]1ccc(-c2ccncn2)cn1 (stereo not drawn) this time
A. N

----------
System: Echinochloa crus-galli (ECHCG)
Test: Post-emergence efficacy, Method A
Assay type: in vivo
Conditions: Echinochloa crus-galli, post-emergence, 312 h; Application Rate 500 g/Ha; evaluated after 13 days; Method A; read-out: Control of weed species after post-emergence application, ECHCG (100=total damage to plant; 0=no damage to plant)
Description: Seeds of a variety of test species were sown in standard soil in pots. […] After 13 days the test was evaluated (100=total damage to plant; 0=no damage to plant). […]
Quick rule for you: pest or weed control at 500 g/ha at 30% or higher means Yes, lower means No.

O=C(O)CC[n+]1ccc(-c2ncc(CO)cn2)cn1 : Yes
CO[N-]C(=O)CC[n+]1ccc(-c2ncccn2)cn1 : Yes
OCC[n+]1ccc(-c2ncccn2)cn1 [Compound A195, 2,2,2-trifluoroacetate] : No
Nc1nccc(-c2cc[n+](CCS(=O)(=O)[O-])nc2)n1 : No
Cc1cc(Cl)cnc1-c1cc[n+](CCC(=O)O)nc1 : No

Q. // inclusive: pest or weed control at 500 g/ha at least 30%? input: O=S(=O)([O-])CCC[n+]1ccc(-c2ccc(-c3ccc(Cl)nn3)nn2)cn1
A. No

Q. Same question, Cc1cnc(-c2cc[n+](CCC(=O)O)nc2)c(F)c1 this time
A. No

Q. Same question, N#Cc1ccc(-c2cc[n+](CCS(=O)(=O)[O-])nc2)nc1 this time
A. Yes

----------
Tested on: Lolium perenne (LOLPE)
Experiment: Post-emergence efficacy, Method A
Assay type: in vivo
Conditions: Lolium perenne, post-emergence, 312 h, Application Rate 500 g/Ha; evaluated after 13 days; Method A; read-out: Control of weed species after post-emergence application, LOLPE (100=total damage to plant; 0=no damage to plant)
Protocol: Seeds of a variety of test species were sown in standard soil in pots. […] After 13 days the test was evaluated (100=total damage to plant; 0=no damage to plant). […]
Parameter: pest or weed control at 500 g/ha. Scope: all listed entries.
Give just the numeric value; % need not be written.

Worked examples follow.
OCCC[n+]1ccc(-c2ncccn2)cn1 [Compound A206] : 0
O=S(=O)([O-])CC(O)C[n+]1ccc(-c2ccncn2)cn1 (stereo not drawn) [Compound A224] : 40
Nc1cc(-c2cc[n+](CCC(=O)O)nc2)nc(N)n1 [Compound A188] : 20
O=C(O)CC[n+]1ccc(-c2ncc(C(F)(F)F)cc2Cl)cn1 [Compound A197] : 0
O=S(=O)([N-]CC[n+]1ccc(-c2ncccn2)cn1)C(F)(F)F [Compound A225] : 30
CC(C[n+]1ccc(-c2ncccn2)cn1)NS(=O)(=O)[O-] (stereo not drawn) [Compound A221] : 60
COC(=O)C(C)[n+]1ccc(-c2ncccn2)cn1 (stereo not drawn) [Compound A192] : 10
Cc1c[n+](CCC(=O)O)ncc1-c1ncccn1 [Compound A153] : 0

Proceed to the following item.
Q. Entry O=C(O)C(O)C[n+]1ccc(-c2ncccn2)cn1 (stereo not drawn) [Compound A180] has what pest or weed control at 500 g/ha?
A. 30

----------
test system: Digitaria sanguinalis (DIGSA); assay: Post-emergence efficacy, Method B; format: in vivo; details: read-out: Control of weed species after post-emergence application, DIGSA
Parameter: pest or weed control at 1000 g/ha. Scope: all listed entries.
Give just the numeric value; % need not be written.

Worked examples follow.
Nc1ccnc(-c2cc[n+](CCC(=O)O)nc2)n1 : 100
O=S(=O)([O-])CC[n+]1ccc(-c2cccnn2)cn1 : 100
O=C(O)CC[n+]1ccc(-c2cccnn2)cn1.[Cl-] : 100
O=C(O)CC[n+]1ccc(-c2ccncn2)cn1.[Cl-] : 100

Proceed to the following item.
Q. Entry N[C@H](CC[n+]1ccc(-c2ncccn2)cn1)C(=O)O [Compound A207, 2,2,2-trifluoroacetate] has what pest or weed control at 1000 g/ha?
A. 90

----------
Parameter: pest or weed control at 500 g/ha. Scope: all listed entries.
system: Lolium perenne (LOLPE); assay: Post-emergence efficacy, Method A; type: in vivo; conditions: Lolium perenne, post-emergence, 312 h, Application rate 500 g/Ha; evaluated after 13 days; 100=total damage to plant, 0=no damage to plant; read-out: Control of weed species after post-emergence application, LOLPE
Give just the numeric value; % need not be written.

Worked examples follow.
O=C(O)CC[n+]1ccc(-c2ccnc(O)n2)cn1 : 10
Cc1cccc(-c2cc[n+](CCC(=O)[O-])nc2)n1 : 20
O=S(=O)([O-])CC[n+]1ccc(-c2ncc(C(F)(F)F)cn2)cn1 : 60
O=S(=O)([O-])CCC[n+]1ccc(-c2ccnc(Cl)n2)cn1 : 40
CC(=O)c1cnc(-c2cc[n+](CCC(=O)[O-])nc2)nc1 : 50
CNC(=O)c1ccnc(-c2cc[n+](CCC(=O)[O-])nc2)n1 : 70
O=C(O)CC[n+]1ccc(-c2ncccc2Cl)cn1 : 40
O=c1cc(-c2cc[n+](CCCS(=O)(=O)[O-])nc2)nc[nH]1 : 10

Q. Entry O=S(=O)([O-])CC[n+]1ccc(-c2ncccc2Cl)cn1 has what pest or weed control at 500 g/ha?
A. 30

Q. Same question, O=C([O-])CC[n+]1ccc(-c2ncc(C3CC3)cn2)cn1 this time
A. 60

Q. Same question, O=C(O)CC[n+]1ccc(-c2ccccn2)cn1 this time
A. 20

Q. Same question, CCOP(=O)(CC[n+]1ccc(-c2ncccn2)cn1)OCC this time
A. 0

Q. Same question, O=C(O)CC[n+]1ccc(-c2nccc(=O)[nH]2)cn1 this time
A. 10

Q. Same question, COc1cnc(-c2cc[n+](CCCS(=O)(=O)[O-])nc2)cn1 this time
A. 20

Q. Same question, COc1cnc(-c2cc[n+](CCS(=O)(=O)[O-])nc2)nc1 this time
A. 40

Q. Same question, O=S(=O)([O-])CC[n+]1ccc(-c2ncccc2C(F)(F)F)cn1 this time
A. 0

Q. Same question, O=S(=O)([O-])CCC[n+]1ccc(-c2cncc(Cl)n2)cn1 this time
A. 30

Q. Same question, Cc1cc(F)cnc1-c1cc[n+](CCC(=O)O)nc1 this time
A. 10

Q. Same question, Cc1cc(-c2cc[n+](CCS(=O)(=O)[O-])nc2)ncn1 this time
A. 50

Q. Same question, COc1nc(-c2cc[n+](CCC(=O)[O-])nc2)ncc1C this time
A. 60

Q. Same question, O=S(=O)([O-])CC[n+]1ccc(-c2ncc(C3CC3)cn2)cn1 this time
A. 60

----------
tested on: Euphorbia heterophylla (EPHHL); experiment: Post-emergence efficacy, Method A; type: in vivo; conditions: Euphorbia heterophylla, post-emergence, 312 h; Application rate 500 g/Ha; evaluated after 13 days; 100=total damage to plant, 0=no damage to plant; read-out: Control of weed species after post-emergence application, EPHHL
endpoint.label: pest or weed control at 500 g/ha (%)
Give just the numeric value; % need not be written.

Worked examples follow.
COc1nc(-c2cc[n+](CCC(=O)[O-])nc2)ncc1C [Compound A106] : 20
Cc1cnc(-c2cc[n+](CCC(=O)O)nc2)nc1 [Compound A36] : 90

Proceed to the following item.
Q. Short answer please: pest or weed control at 500 g/ha, Euphorbia heterophylla (EPHHL), entry O=C([O-])CC[n+]1ccc(-c2ccc(F)cn2)cn1 [Compound A71]
A. 40

----------
tested on: Setaria faberi (SETFA); assay: Post-emergence efficacy, Method B; type: in vivo; settings: read-out: Control of weed species after post-emergence application, SETFA
endpoint.label: pest or weed control at 1000 g/ha (%)
Give just the numeric value; % need not be written.

Worked examples follow.
N[C@H](CC[n+]1ccc(-c2ncccn2)cn1)C(=O)O [Compound A207, 2,2,2-trifluoroacetate] : 100
O=C(O)CC[n+]1ccc(-c2ccncn2)cn1.[Cl-] : 40
O=S(=O)([O-])CC[n+]1ccc(-c2cccnn2)cn1 : 100
Nc1ccnc(-c2cc[n+](CCC(=O)O)nc2)n1 : 100

Q. Entry O=C(O)CC[n+]1ccc(-c2cccnn2)cn1.[Cl-] has what pest or weed control at 1000 g/ha?
A. 100
